Attribution: patent US20170081400A1

# systemTested: T1, human TL1A extracellular domain with N-terminal HIS and FLAG tag (human, UniProt O95150 72-251)
# T1 construct: the whole entry is named; also called TNFSF15
# T1 sequence: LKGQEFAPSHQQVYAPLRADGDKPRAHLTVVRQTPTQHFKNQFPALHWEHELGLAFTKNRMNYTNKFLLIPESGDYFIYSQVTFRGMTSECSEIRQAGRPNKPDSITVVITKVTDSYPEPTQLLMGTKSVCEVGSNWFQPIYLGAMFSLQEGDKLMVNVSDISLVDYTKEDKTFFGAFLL
# procedureDetails: SPR Run 7, antibody on Protein A, TL1A 5 ug/mL, timepoint 44
Quick rule for you: TL1A Binding Level (Early) at 70 RU or higher means Criterion met, lower means Criterion not met.

Input line: Test whether the binder 320-546 (antibody, human IgG1, name in Kabat numbering, V domains shown, full-length human IgG1, lambda) VH: QVQLVQSGAEVKKPGASVKVSCKASGYTFTSYDINWVRQAPGQGLEWMGWLNPNSGWTGYAQKFQGRVTMTADRSTSTAYMELSSLRSEDTAVYYCAREVPETAAFEYWGQGTLVTVSS VL: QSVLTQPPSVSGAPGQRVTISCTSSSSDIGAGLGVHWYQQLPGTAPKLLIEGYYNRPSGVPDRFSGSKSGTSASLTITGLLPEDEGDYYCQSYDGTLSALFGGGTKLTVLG records TL1A Binding Level (Early) of 70 RU or higher.
Output line: Criterion not met

Input line: Now the binder 320-522 (antibody, human IgG1, name in Kabat numbering, V domains shown, full-length human IgG1, lambda) VH: QVQLVQSGAEVKKPGASVKVSCKASGYTFTSYDINWVRQAPGQGLEWMGWLNPYSGNTGYAQKFQGRVTMTADRSTSTAYMELSSLRSEDTAVYYCAREVPETAAFEYWGQGTLVTVSS VL: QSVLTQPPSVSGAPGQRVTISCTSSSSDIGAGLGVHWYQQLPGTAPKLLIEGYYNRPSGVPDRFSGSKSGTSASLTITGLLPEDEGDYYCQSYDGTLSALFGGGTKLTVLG
Output line: Criterion met

Input line: Now the binder 320-516 (antibody, human IgG1, name in Kabat numbering, V domains shown, full-length human IgG1, lambda) VH: QVQLVQSGAEVKKPGASVKVSCKASGYTFTSYDINWVRQAPGQGLEWMGWLNPQSGNTGYAQKFQGRVTMTADRSTSTAYMELSSLRSEDTAVYYCAREVPETAAFEYWGQGTLVTVSS VL: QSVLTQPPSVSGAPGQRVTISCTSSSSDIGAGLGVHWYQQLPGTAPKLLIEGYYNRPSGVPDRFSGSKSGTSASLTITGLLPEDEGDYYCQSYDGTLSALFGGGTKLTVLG
Output line: Criterion met

Input line: Now the binder 320-520 (antibody, human IgG1, name in Kabat numbering, V domains shown, full-length human IgG1, lambda) VH: QVQLVQSGAEVKKPGASVKVSCKASGYTFTSYDINWVRQAPGQGLEWMGWLNPLSGNTGYAQKFQGRVTMTADRSTSTAYMELSSLRSEDTAVYYCAREVPETAAFEYWGQGTLVTVSS VL: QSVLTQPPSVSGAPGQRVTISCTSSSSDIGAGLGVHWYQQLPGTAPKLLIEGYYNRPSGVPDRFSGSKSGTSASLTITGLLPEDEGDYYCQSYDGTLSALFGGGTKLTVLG
Output line: Criterion met
